These data points were gathered from patent US9982260B2.

Tested on: human exon-50 DMD GFP reporter (ex50GFP)
Experiment: High-throughput screen in the Ex50GFP reporter cell line (C2C12 myoblasts, Prestwick library)
Details: 10 μM compound, no AO, GFP fluorescence after 48 h vs DMSO controls
Where a name gives a salt, the structure may show the parent alone.
RECORDED METRIC: Z Score, 'Compound only' screen
No unit in the answer, please; the number alone is enough.

// worked examples, Z Score, 'Compound only' screen included
[
  {
    "COMPOUND": "CC(NCCC(c1ccccc1)c1ccccc1)c1ccccc1 (stereo not shown) [Fendiline hydrochloride]",
    "STUDY TARGET": "human exon-50 DMD GFP reporter (ex50GFP)",
    "Z Score, 'Compound only' screen": 7.39
  },
  {
    "COMPOUND": "COc1cccc2c1C(=O)c1c(O)c3c(c(O)c1C2=O)C[C@@](O)(C(C)=O)C[C@@H]3O[C@H]1C[C@H](N)[C@H](O)[C@H](C)O1 [Daunorubicin hydrochloride]",
    "STUDY TARGET": "human exon-50 DMD GFP reporter (ex50GFP)",
    "Z Score, 'Compound only' screen": 5.14
  },
  {
    "COMPOUND": "COc1ccc2c3c([nH]c2c1)C(C)=NCC3.Cl.O.O [Harmaline hydrochloride dihydrate]",
    "STUDY TARGET": "human exon-50 DMD GFP reporter (ex50GFP)",
    "Z Score, 'Compound only' screen": 5.78
  }
]

Please find the next compound below.
query: State Z Score, 'Compound only' screen (human exon-50 DMD GFP reporter (ex50GFP)) of OC(c1cc(C(F)(F)F)nc2c(C(F)(F)F)cccc12)C1CCCCN1 (stereo not shown) [Mefloquine hydrochloride] .
result: 5.92
